Biological target: IDO1 enzyme in the Hela cell (Homo sapiens)
Construct: endogenous in cells; host or cells: HeLa cells stimulated with interferon γ (100 ng/ml)
Sequence (P14902 whole entry): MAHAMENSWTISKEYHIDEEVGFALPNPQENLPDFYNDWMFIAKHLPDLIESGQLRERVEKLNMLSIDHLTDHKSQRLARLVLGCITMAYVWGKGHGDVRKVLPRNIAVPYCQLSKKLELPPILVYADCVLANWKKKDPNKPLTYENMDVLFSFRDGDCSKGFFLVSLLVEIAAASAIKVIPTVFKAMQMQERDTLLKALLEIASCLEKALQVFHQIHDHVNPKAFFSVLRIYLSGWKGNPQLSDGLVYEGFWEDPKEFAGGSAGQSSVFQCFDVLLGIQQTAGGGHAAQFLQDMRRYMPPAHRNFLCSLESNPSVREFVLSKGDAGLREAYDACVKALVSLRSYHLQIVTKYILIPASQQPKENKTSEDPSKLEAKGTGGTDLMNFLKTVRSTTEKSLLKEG
Experiment: Cell activity: interferon γ-stimulated Hela cells, absorbance of supernatant at 480 nm
Assay type: cell-based
Conditions: interferon γ 100 ng/ml, 72 hours
# key: entry, value: IC50
readout.name: IC50

>>> value_measured("O=C(Nc1ccncn1)Nc1nonc1/C(=N/O)Nc1ccc(F)c(Br)c1")
"> 1 µM"
>>> value_measured("N=C(Nc1cocc1/C(=N/O)Nc1ccc(F)c(Br)c1)NC1CCCCC1")
"0.1 to 1 µM"
>>> value_measured("N=C(Nc1nonc1/C(=N/O)Nc1ccc(F)c(Br)c1)NC1CCNCC1")
"< 0.001 µM"
>>> value_measured("N=C(Nc1conc1/C(=N/O)Nc1ccc(F)c(Cl)c1)NC1CCCCC1")
"0.1 to 1 µM"
>>> value_measured("COc1ccc(NC(=N)Nc2nocc2/C(=N/O)Nc2ccc(F)c(Br)c2)cc1")
"0.1 to 1 µM"
>>> value_measured("Nc1ccc(NC(=S)Nc2nonc2/C(=N/O)Nc2ccc(F)c(Br)c2)cc1")
"< 0.001 µM"
>>> value_measured("O=C(Nc1cocc1/C(=N/O)Nc1ccc(F)c(Br)c1)Nc1c[nH]c2ccccc12")
"0.1 to 1 µM"
>>> value_measured("O=C(Nc1ncc[nH]1)Nc1nonc1/C(=N/O)Nc1ccc(F)c(Br)c1")
"> 1 µM"
>>> value_measured("O=C(Nc1ccsc1)Nc1nonc1/C(=N/O)Nc1ccc(F)c(Br)c1")
"> 1 µM"
>>> value_measured("O=C(Nc1nonc1/C(=N/O)Nc1ccc(F)cc1)NC1CCCCC1")
"0.1 to 1 µM"
>>> value_measured("COc1cccc(NC(=O)Nc2nocc2/C(=N/O)Nc2ccc(F)c(Br)c2)c1")
"> 1 µM"
>>> value_measured("O/N=C(\\Nc1ccc(F)c(Br)c1)c1nonc1NC(=S)Nc1ccc(C(F)(F)F)cc1")
"> 1 µM"
>>> value_measured("COc1ccc(NC(=O)Nc2nonc2/C(=N/O)Nc2ccc(F)c(Br)c2)cc1")
"0.1 to 1 µM"
>>> value_measured("NC1CCC(NC(=S)Nc2nonc2/C(=N/O)Nc2ccc(F)c(Br)c2)CC1 (centres unmarked)")
"0.1 to 1 µM"
>>> value_measured("COc1ccc(NC(=S)Nc2nonc2/C(=N/O)Nc2ccc(F)c(Br)c2)cc1")
"0.1 to 1 µM"
>>> value_measured("O/N=C(\\Nc1ccc(F)c(Br)c1)c1nonc1NC(=S)NC1CCC(O)CC1 (centres unmarked)")
"< 0.001 µM"
>>> value_measured("O/N=C(\\Nc1ccc(F)c(Br)c1)c1cocc1NC(=S)Nc1ccccc1")
"0.1 to 1 µM"
